testedSystem: SARS-COV-2 spike protein receptor binding domain (amino acids Arg319 to Phe541) expressed with the F (SARS-CoV-2)
parameterMeasured: t½ (min)

{"binder": "mAb11004 (antibody, V domains shown) VH: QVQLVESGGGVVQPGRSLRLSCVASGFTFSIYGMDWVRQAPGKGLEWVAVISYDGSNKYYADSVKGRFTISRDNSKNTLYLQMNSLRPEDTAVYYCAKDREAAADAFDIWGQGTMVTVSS VL: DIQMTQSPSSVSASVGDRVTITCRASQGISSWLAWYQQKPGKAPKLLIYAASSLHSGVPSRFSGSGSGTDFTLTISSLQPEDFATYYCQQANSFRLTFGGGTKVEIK", "readoutUnit": "min", "valueComparator": "=", "measuredResult": 174}
{"binder": "mAb11008 (antibody, V domains shown) VH: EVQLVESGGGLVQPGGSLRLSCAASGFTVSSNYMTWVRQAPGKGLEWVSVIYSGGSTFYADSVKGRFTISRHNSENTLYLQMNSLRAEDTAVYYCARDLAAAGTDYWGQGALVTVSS VL: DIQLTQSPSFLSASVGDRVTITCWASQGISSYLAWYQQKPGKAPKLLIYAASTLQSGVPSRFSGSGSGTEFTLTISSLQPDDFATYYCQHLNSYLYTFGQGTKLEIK", "readoutUnit": "min", "valueComparator": "=", "measuredResult": 100}
{"binder": "mAb10998 (antibody, V domains shown) VH: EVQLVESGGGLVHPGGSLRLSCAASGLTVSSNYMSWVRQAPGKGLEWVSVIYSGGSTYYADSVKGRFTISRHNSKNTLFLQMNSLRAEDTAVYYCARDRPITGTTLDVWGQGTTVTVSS VL: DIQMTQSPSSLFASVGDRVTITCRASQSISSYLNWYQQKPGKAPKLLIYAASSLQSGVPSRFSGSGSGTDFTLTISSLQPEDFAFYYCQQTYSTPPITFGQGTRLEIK", "readoutUnit": "min", "valueComparator": "=", "measuredResult": 22.2}
{"binder": "mAb11006 (antibody, V domains shown) VH: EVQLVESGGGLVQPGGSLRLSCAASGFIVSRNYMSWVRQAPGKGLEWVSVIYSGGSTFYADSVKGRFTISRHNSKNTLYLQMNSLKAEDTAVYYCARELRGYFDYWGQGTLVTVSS VL: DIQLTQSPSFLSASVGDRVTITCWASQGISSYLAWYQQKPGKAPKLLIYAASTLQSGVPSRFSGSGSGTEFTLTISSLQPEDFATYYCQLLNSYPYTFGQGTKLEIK", "readoutUnit": "min", "valueComparator": "≥", "measuredResult": 1160}

These entries and their values trace back to patent US20260234738A1.
